The following compounds have recorded IC50 on human liver microsome CYP2E1 (Homo sapiens, UniProt P05181).
Sequence (P05181 whole entry): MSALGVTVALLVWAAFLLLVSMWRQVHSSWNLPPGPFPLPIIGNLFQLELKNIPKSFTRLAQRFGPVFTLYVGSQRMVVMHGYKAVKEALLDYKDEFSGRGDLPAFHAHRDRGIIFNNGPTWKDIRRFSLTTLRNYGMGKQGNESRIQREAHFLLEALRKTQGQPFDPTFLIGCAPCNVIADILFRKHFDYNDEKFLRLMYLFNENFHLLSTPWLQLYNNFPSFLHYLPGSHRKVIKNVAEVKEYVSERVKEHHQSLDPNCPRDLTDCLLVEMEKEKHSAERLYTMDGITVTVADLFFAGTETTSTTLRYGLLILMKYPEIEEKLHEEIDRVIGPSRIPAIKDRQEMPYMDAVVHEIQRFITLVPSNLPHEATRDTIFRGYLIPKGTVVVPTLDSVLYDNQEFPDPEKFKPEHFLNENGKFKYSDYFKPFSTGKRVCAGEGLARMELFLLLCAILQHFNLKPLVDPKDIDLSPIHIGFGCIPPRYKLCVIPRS
Provide only the numeric value, understood in µM.

Q: GET /values?readout=IC50&item= `CCc1nc(COC(=O)c2cccn2Cc2ccncc2)cs1`
A: 7.99

Q: GET /values?readout=IC50&item= `CC(=O)c1scnc1C`
A: 1.64

Q: GET /values?readout=IC50&item= `COc1cccc(/C=C/C(=O)c2scnc2C)c1`
A: 115

----------
Assay metric: IC50
Param answer (str): number followed by unit.

Q: Value wanted: IC50 (CYP2C9 (Homo sapiens, UniProt P11712)) of entry `CCc1nc(COC(=O)c2cccn2Cc2ccncc2)cs1`
A: 1860 nM
